Collected RP-LC retention time values appear next to each entry.
Assay: gradient 5% acetonitrile 3 min, to 50% in 2 min, to 85% in 15 min, held 3 min, 100 µL/min
Settings: column: Zorbax Extend-C18 2.1 x 50 mm; eluents: water / acetonitrile, 0.1% formic acid
Provide only the numeric value, understood in s.

compound	RP-LC retention time / s
Cc1ccc(NC(=O)C(C)Oc2ccc(F)cc2)cc1C (centres undefined)	956
Cn1nc(-c2ccccc2)nc1C1CN(C(=O)NCC2CCCO2)C1 (centres undefined)	625
Cc1ccc(NC(=O)N2CCc3nc(-c4ccccc4)ncc3C2)c(C)c1	952

IN: // query RP-LC retention time value for entry Cc1ccccc1-c1nc(N)n(C(=O)C(C)(C)C)n1
OUT: 1100

IN: // query RP-LC retention time value for entry COc1ccc(OC)c(NC(=O)Cn2cnc3cc4c(cc32)OCCO4)c1
OUT: 641

IN: // query RP-LC retention time value for entry O=C1[C@H]2CN(Cc3cc(F)cc(F)c3)C[C@H]2C(=O)N1CCc1ccccc1
OUT: 957

IN: // query RP-LC retention time value for entry Cc1ccc(Cl)cc1NC(=O)C1CCN(S(=O)(=O)c2ccc3c(c2)NC(=O)C(C)O3)CC1 (centres undefined)
OUT: 834

IN: // query RP-LC retention time value for entry CS(=O)(=O)N1CCC(C(=O)Nc2ccc(Br)cc2F)Oc2ccccc21 (centres undefined)
OUT: 990

IN: // query RP-LC retention time value for entry Cc1nc2cc(N3CC(C(=O)Nc4ccc(Cl)cc4C)CC3=O)ccc2o1 (centres undefined)
OUT: 781

IN: // query RP-LC retention time value for entry Cc1cc(C)c(C(=O)N2CCCC(C(=O)N3CCN(c4cccc(C)c4C)CC3)C2)[nH]1 (centres undefined)
OUT: 996

IN: // query RP-LC retention time value for entry CN1[C@@H]2CC(OC(=O)[C@H](CO)c3ccccc3)C[C@H]1[C@@H]1O[C@@H]12 (some centres undefined)
OUT: 619

----------
Collected RP-LC retention time values appear next to each entry.
Test: gradient 5% acetonitrile 3 min, to 50% in 2 min, to 85% in 15 min, held 3 min, 100 µL/min
Conditions: column: Zorbax Extend-C18 2.1 x 50 mm; eluents: water / acetonitrile, 0.1% formic acid
Provide only the numeric value, understood in s.

compound	RP-LC retention time, s
Cc1cccc(CNC(=O)c2ccc(CN3CCN(C(C)C)C(=O)C3=O)cc2)c1	714
C=C[C@H]1CN2CCC1C[C@@H]2C(O)c1ccnc2ccccc12 (stereo not given in full)	576
Cn1c(=O)c(C(=O)NCc2ccccc2Cl)nc2cccnc21	728
Cc1ccc(CNC(=O)N2CCCC2c2nc(-c3ccccc3)no2)cc1 (stereo not given)	994

Next compound, RP-LC retention time to be filled in.
IN: // query RP-LC retention time value for entry Cc1c(C(=O)NCC(C)C)cnn1-c1cc(-c2nc(C(C)C)no2)ccn1
OUT: 1010

----------
Assay: gradient 5% acetonitrile 3 min, to 50% in 2 min, to 85% in 15 min, held 3 min, 100 µL/min
Conditions: column: Zorbax Extend-C18 2.1 x 50 mm; eluents: water / acetonitrile, 0.1% formic acid
measure: RP-LC retention time (s)
Provide only the numeric value, understood in s.

molecule	unitText	RP-LC retention time
O=C(Nc1cnc(N2CCCCCC2)nc1)c1cc(F)ccc1F	s	967

IN: // query RP-LC retention time value for entry COc1ccc2cc(C(=O)Nc3ccc(F)cc3C)[nH]c2c1
OUT: 806

IN: // query RP-LC retention time value for entry C[C@@H]1c2ccccc2CCN1C(=O)c1ccccc1F
OUT: 919

IN: // query RP-LC retention time value for entry O=C(NC1CCN(c2cc(-c3cccs3)[nH]n2)C1)c1ccc(Cl)cc1 (stereo not given)
OUT: 776

IN: // query RP-LC retention time value for entry CC(=O)c1cccc(NC(=O)N2CCCN(c3nc4ccccc4n4cccc34)CC2)c1
OUT: 647

IN: // query RP-LC retention time value for entry COc1ccc(C2(C(=O)N3CC(N(Cc4ccncc4)S(C)(=O)=O)C3)CC2)cc1
OUT: 613

IN: // query RP-LC retention time value for entry CCOc1ccc(S(=O)(=O)N2CCCC(C(=O)NC3CCCCCC3)C2)cc1 (stereo not given)
OUT: 1060

----------
Assay: gradient 5% acetonitrile 3 min, to 50% in 2 min, to 85% in 15 min, held 3 min, 100 µL/min
Details: column: Zorbax Extend-C18 2.1 x 50 mm; eluents: water / acetonitrile, 0.1% formic acid
measure: RP-LC retention time
Please answer using the number first and the unit second.

compound	result
OCC(O)COc1cccc2ccccc12 (stereo not given)	758 s
CCOC(=O)c1oc2ccc(S(=O)(=O)N3CCCC(CN4CCCC4)CC3)cc2c1C (stereo not given)	733 s
CN(Cc1ccccc1)C(=O)CN1C(=O)C(C(=O)N2CCCCCC2)Sc2ccccc21 (stereo not given)	945 s
Cc1ccccc1C(=O)Nc1nc(-c2ccc3c(c2)NC(=O)C(C)O3)c(C)s1 (stereo not given)	797 s

Next compound, RP-LC retention time to be filled in.
IN: // query RP-LC retention time value for entry CN1C(=O)[C@H]2CN(Cc3cccc4[nH]ccc34)C[C@H]2C1=O
OUT: 552 s

----------
Assay: gradient 5% acetonitrile 3 min, to 50% in 2 min, to 85% in 15 min, held 3 min, 100 µL/min
Details: column: Zorbax Extend-C18 2.1 x 50 mm; eluents: water / acetonitrile, 0.1% formic acid
Just a reminder that ties go to not fulfilled: only RP-LC retention time strictly below 800 s counts as fulfilled.

IN: Take the compound COc1ccc(NC(=O)Cn2c(=O)n(-c3ccccc3)c(=O)c3c2cc(C)n3C)cc1 and say whether its RP-LC retention time is less than 800 s.
OUT: fulfilled

IN: Take the compound Cc1cc(C(=O)N2CCC(Oc3nc4c(Cl)cccc4s3)CC2)no1 and say whether its RP-LC retention time is less than 800 s.
OUT: not fulfilled

IN: Take the compound CC1CCN(C(=O)Cc2nnc3cc(-c4nc(C5CC5)no4)ccn23)CC1 and say whether its RP-LC retention time is less than 800 s.
OUT: fulfilled

IN: Take the compound Cc1ccc(OCC(=O)Nc2nc(-c3ccccc3)cs2)c(Br)c1 and say whether its RP-LC retention time is less than 800 s.
OUT: not fulfilled

----------
Experiment: gradient 5% acetonitrile 3 min, to 50% in 2 min, to 85% in 15 min, held 3 min, 100 µL/min
Conditions: column: Zorbax Extend-C18 2.1 x 50 mm; eluents: water / acetonitrile, 0.1% formic acid
Collected RP-LC retention time values appear next to each entry.
Provide only the numeric value, understood in s.

Some entries whose results are on file:
compound	measure	unitText	readoutNumber
O=C(c1ccco1)N1CCc2cc(-c3csc(C4CC4)n3)ccc21	RP-LC retention time	s	1070
CC(C(=O)N1CCN(c2ncccn2)CC1)n1c2ccccc2c2cnn(C)c(=O)c21 (centres undefined)	RP-LC retention time	s	794
c1ccc(-c2nc3nccc(-c4ccccn4)n3n2)cc1	RP-LC retention time	s	820
CCn1ccc(C(=O)N2CC(n3ccnc3C(C)C)C2)n1	RP-LC retention time	s	566
CCCNC(=O)Cn1cc(C(=O)Nc2ccc(C)c(C)c2)c(=O)c2ccc(C)nc21	RP-LC retention time	s	966
CS(=O)(=O)c1ccccc1C(=O)Nc1c2c(nn1-c1nc3ccccc3s1)CCC2	RP-LC retention time	s	1060

IN: // query RP-LC retention time value for entry CCN(CC)CCNC(=O)c1cn(C)nc1S(=O)(=O)N1CCN(c2cc(Cl)ccc2C)CC1
OUT: 756

IN: // query RP-LC retention time value for entry Cc1cccc(Sc2nccnc2N2CCCC(C(=O)NC3CCCCCC3)C2)c1 (centres undefined)
OUT: 1230

----------
Assay: gradient 5% acetonitrile 3 min, to 50% in 2 min, to 85% in 15 min, held 3 min, 100 µL/min
Details: column: Zorbax Extend-C18 2.1 x 50 mm; eluents: water / acetonitrile, 0.1% formic acid
Collected RP-LC retention time values appear next to each entry.
Provide only the numeric value, understood in s.

Some entries whose results are on file:
compound	unitText	readoutNumber
O=C(Cc1c(Sc2cccc(F)c2)[nH]c2ccccc12)N1CCN(c2ccccn2)CC1	s	699
Cc1ccc(NS(=O)(=O)c2cc3n(c2)CCN(CC(C)C)C3=O)c(C)c1	s	841

IN: // query RP-LC retention time value for entry CCOc1ccccc1NC(=O)N1CCCC(C)(C(=O)NCc2cccc(OC)c2)C1 (stereo not drawn)
OUT: 958

----------
Collected RP-LC retention time values appear next to each entry.
Assay: gradient 5% acetonitrile 3 min, to 50% in 2 min, to 85% in 15 min, held 3 min, 100 µL/min
Settings: column: Zorbax Extend-C18 2.1 x 50 mm; eluents: water / acetonitrile, 0.1% formic acid
Provide only the numeric value, understood in s.

molecule	RP-LC retention time / s
O=C(COc1ccc(-c2cnc3ccccc3n2)cc1)Nc1ccccn1	852
CCN1C(=O)COc2ccc(-c3noc(-c4ccc(F)cc4)n3)cc21	1130
Cc1ccc(-c2nc(CCN(C)C(=O)Nc3cc(F)ccc3F)no2)cc1	994

IN: // query RP-LC retention time value for entry O=C(N1CCOC(c2ccc(C(F)(F)F)cc2)C1)C1(c2ccc(F)cc2)CC1 (centres undefined)
OUT: 1020

IN: // query RP-LC retention time value for entry COc1ccc(-n2c(CN3CCN(C(=O)NC(C)(C)C)CC3)nc3cccnc32)cc1
OUT: 640

IN: // query RP-LC retention time value for entry CCOC(=O)c1nc(Nc2ccc(OC)c(OC)c2)c2ccccc2n1
OUT: 736

IN: // query RP-LC retention time value for entry Cn1c(=O)n([C@H]2CCCN(S(=O)(=O)c3cccc4nsnc34)C2)c2ncccc21
OUT: 822

IN: // query RP-LC retention time value for entry CCNC(=O)c1cc(C(C)(C)C)[nH]n1
OUT: 647

IN: // query RP-LC retention time value for entry COc1ccc(NC(=O)Cn2c(=O)nc(N3CCC(C)CC3)c3ccccc32)c(OC)c1
OUT: 831
